In this section we review reported Emax (MFI) values for a set of binders.
target: T1, cell surface human mesothelin (MSLN) (human, UniProt Q13421 296-598); test: flow cytometry, NCI-H226 cells
T1 construct: whole, on cells; also called cell surface MSLN
T1 sequence (Q13421 other isoform, or with tags, fused parts or gaps limits assumed): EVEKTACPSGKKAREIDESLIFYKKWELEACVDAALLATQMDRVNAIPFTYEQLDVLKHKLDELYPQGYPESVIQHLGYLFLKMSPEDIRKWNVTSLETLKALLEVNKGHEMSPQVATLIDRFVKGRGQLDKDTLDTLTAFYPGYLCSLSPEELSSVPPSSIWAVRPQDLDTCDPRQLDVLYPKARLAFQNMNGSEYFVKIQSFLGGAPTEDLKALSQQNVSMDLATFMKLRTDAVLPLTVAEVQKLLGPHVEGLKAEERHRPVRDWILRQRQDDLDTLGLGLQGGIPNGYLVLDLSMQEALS
Give the value, in units of MFI, as a plain number.

Examples from the recorded data:
BINDER | Emax (MFI)
FS22-053-008-AA/FS28-256-021 mAb^2 (bispecific antibody, human IgG1, kappa, L234A L235A, V domains shown) VH: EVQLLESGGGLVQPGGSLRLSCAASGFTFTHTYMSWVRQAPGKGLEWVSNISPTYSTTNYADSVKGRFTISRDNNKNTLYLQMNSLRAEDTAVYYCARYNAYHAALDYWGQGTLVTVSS VL: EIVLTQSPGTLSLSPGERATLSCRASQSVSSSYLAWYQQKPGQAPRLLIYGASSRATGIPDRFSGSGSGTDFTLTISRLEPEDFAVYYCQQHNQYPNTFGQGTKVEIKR | 919000
FS22-053-008-AA/FS28-256-018 mAb^2 (bispecific antibody, human IgG1, kappa, L234A L235A, V domains shown) VH: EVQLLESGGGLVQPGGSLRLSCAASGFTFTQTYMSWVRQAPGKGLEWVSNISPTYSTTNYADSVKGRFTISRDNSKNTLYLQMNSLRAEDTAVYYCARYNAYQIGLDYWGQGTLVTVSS VL: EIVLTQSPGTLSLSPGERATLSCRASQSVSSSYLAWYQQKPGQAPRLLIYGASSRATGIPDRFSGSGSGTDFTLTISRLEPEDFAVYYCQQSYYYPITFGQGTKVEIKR | 637000

// next item, Emax (MFI) requested
// lookup Emax (MFI) for FS22-053-008-AA/FS28-256-012 mAb^2 (bispecific antibody, human IgG1, kappa, L234A L235A, V domains shown) VH: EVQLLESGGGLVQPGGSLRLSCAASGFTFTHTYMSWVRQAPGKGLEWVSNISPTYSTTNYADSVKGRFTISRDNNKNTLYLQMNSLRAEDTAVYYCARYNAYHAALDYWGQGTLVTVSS VL: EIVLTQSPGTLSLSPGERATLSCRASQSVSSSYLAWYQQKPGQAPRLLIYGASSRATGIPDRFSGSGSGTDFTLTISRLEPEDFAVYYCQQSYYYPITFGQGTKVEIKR
969000
